Reference source: patent US20240270751A1

Consider the following compounds; for each one, report its IC50.
molecular target: DGKζ (Homo sapiens (Human), UniProt Q13574); assay: Biochemical DGK IC50 assay, DGKζ ADP-Glo assay; details: 0.5 nM enzyme, 140 μM ATP, 80 μM DAG; read-out: DGKζ ADP-Glo assay IC50
Sequence (Q13574 other isoform, or with tags, fused parts or gaps): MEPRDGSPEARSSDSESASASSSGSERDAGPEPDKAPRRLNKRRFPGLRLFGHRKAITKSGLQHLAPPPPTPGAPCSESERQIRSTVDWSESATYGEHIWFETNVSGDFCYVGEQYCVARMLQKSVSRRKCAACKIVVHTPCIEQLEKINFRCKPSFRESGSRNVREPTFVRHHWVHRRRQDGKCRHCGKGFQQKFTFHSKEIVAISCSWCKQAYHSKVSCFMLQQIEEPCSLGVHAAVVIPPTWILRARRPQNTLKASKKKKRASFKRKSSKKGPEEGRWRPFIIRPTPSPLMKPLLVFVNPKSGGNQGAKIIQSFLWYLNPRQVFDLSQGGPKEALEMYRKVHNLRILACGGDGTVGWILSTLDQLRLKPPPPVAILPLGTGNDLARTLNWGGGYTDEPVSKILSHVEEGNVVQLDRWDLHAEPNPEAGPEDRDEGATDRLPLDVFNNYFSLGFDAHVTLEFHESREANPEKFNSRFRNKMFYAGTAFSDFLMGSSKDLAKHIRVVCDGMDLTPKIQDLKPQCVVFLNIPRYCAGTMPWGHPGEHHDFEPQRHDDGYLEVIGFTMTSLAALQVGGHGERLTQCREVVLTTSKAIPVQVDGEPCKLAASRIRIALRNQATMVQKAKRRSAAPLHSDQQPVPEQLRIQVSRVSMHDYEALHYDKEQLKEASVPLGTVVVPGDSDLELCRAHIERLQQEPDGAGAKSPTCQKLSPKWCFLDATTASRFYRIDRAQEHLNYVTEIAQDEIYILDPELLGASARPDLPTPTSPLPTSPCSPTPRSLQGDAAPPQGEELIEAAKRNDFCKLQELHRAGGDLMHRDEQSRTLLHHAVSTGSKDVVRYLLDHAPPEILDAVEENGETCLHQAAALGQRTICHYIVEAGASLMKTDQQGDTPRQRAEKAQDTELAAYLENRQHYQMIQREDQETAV
Write down the numeric answer in nM and omit the unit.

query: Query for DGKζ (Homo sapiens (Human), UniProt Q13574): what IC50 does the record show for CC[C@@H]1CN(c2cc(=O)[nH]c3c(C)n(CC#N)nc23)[C@@H](C)CN1C(C)c1ccc2nccnc2c1 (stereo partly drawn) [Compound A264] ?
result: 215

query: Same lookup for CC[C@H]1CN(C(C)c2ccc(F)cc2C(=O)N(C)C)[C@H](CC)CN1c1cc(=O)n(C)c2cn(CC#N)nc12 (stereo partly drawn) [Compound A292] , please.
result: 1910

query: Same lookup for CC[C@H]1CN(C(C)c2ccc(F)cc2Cl)[C@H](CC)CN1c1cc(=O)n(C)c2cn(CC#N)nc12 (stereo partly drawn) [Compound A116] , please.
result: 146

query: Same lookup for CC(c1ccc2cccnc2c1)N1C[C@H](C)N(c2cc(=O)n(C)c3cn(CC#N)nc23)C[C@H]1C (stereo partly drawn) [Compound A40] , please.
result: 270

query: Same lookup for CC[C@H]1CN(C(C)c2cccc(CN(C)C)c2)[C@H](CC)CN1c1cc(=O)n(C)c2cn(CC#N)nc12 (stereo partly drawn) [Compound A151] , please.
result: 2040

query: Same lookup for Cc1cnc2cc([C@H](C)N3C[C@H](C)N(c4cc(=O)n(C)c5cn(CC#N)nc45)C[C@H]3C)ccc2n1 (single isomer, unassigned) [Compound A269b] , please.
result: 6850

query: Same lookup for CC(c1ccc2nccnc2c1)N1C[C@H](C)N(c2cc(=O)n(C)c3cn(CC#N)nc23)C[C@H]1CO (stereo partly drawn) [Compound A99] , please.
result: 2790

query: Same lookup for CC(c1ccc2nccnc2c1)N1C[C@H](CCO)N(c2cc(=O)n(C)c3cn(CC#N)nc23)C[C@H]1C (stereo partly drawn) [Compound A145] , please.
result: 55

query: Same lookup for CC[C@H]1CN(C(C)c2cnc3c(n2)CCCC3)[C@H](CC)CN1c1cc(=O)n(C)c2cn(CC#N)nc12 (single isomer, unassigned) [Compound A357a] , please.
result: 2540

query: Same lookup for CC#CCn1cc2c(n1)c(N1C[C@@H](CC)N(C(C)c3ccc(C(F)(F)F)cc3F)C[C@@H]1CC)cc(=O)n2C (single isomer, unassigned) [Compound A334a] , please.
result: 978

query: Same lookup for CC(c1ccc2nccnc2c1)N1C[C@H](C)N(c2cc(=O)n(C)c3cn(C(C)C)nc23)C[C@H]1C (stereo partly drawn) [Compound A18] , please.
result: 3700

query: Same lookup for CC[C@H]1CN(C(C)c2nc3cc(C(F)(F)F)ccc3n2CC)[C@H](CC)CN1c1cc(=O)n(C)c2cn(CC#N)nc12 (single isomer, unassigned) [Compound A203b] , please.
result: 233

query: Same lookup for CC[C@@H]1CN(c2c(C#N)c(=O)n(C)c3cn(CC#N)nc23)[C@@H](C)CN1C(C)c1ccc2nccnc2c1 (stereo partly drawn) [Compound A156] , please.
result: 18

query: Same lookup for CC[C@H]1CN(C(C)c2ccccc2OC)[C@H](CC)CN1c1cc(=O)n(C)c2cn(CC#N)nc12 (single isomer, unassigned) [Compound A106b] , please.
result: 183

query: Same lookup for CC[C@H]1CN(C(C)c2nc3cccc(C(F)(F)F)c3n2CC)[C@H](CC)CN1c1cc(=O)n(C)c2cn(CC#N)nc12 (single isomer, unassigned) [Compound A230a] , please.
result: 1440
